experiment: Toxicity liver stage against HepG2, at 10uM; assay type: cell-based; design: test concentration 10 uM, cell line HepG2-A16-CD81EGFP; settings: human, HepG2-A16-CD81EGFP cells; read-out: INHIBITION
Reported cytotoxicity at 10 µM is given for each of the following compounds.
Report only the number, with the unit % understood.

[in] Recorded cytotoxicity at 10 µM of Cc1cc2n(n1)CC(CNCc1ccc(-n3ccnc3C)nc1)CN2 (stereo not given) , please.
[out] -11.7

[in] Then Cc1cccc(OCCCN2CCC(N(C)Cc3noc(C)n3)C2)c1 (stereo not given) ?
[out] -2.61

[in] Then CCN1C[C@H]2[C@@H](C1)N(S(=O)(=O)c1ccccc1)CC[C@H]2OC ?
[out] -75.3

[in] Then c1ccc(-c2nnc(CN3C[C@H]4CC[C@@H](C3)N(CC3CCC3)C4)o2)cc1 ?
[out] -8.51

[in] Then CN1CCN(CCOc2ccc(NC(=O)c3cnc[nH]3)cc2)CC1 ?
[out] 0.71

The reported numbers originate from ChEMBL document CHEMBL4513216.
